Consider the following binders; for each one, report its Increase Over Un-induced (DiI uptake, BHK(SR-BI) cells).
# SYSTEM: T1, human scavenger receptor class B, type 1 (SR-BI) (human, UniProt Q8WTV0 1-552)
# T1 sequence (looked up): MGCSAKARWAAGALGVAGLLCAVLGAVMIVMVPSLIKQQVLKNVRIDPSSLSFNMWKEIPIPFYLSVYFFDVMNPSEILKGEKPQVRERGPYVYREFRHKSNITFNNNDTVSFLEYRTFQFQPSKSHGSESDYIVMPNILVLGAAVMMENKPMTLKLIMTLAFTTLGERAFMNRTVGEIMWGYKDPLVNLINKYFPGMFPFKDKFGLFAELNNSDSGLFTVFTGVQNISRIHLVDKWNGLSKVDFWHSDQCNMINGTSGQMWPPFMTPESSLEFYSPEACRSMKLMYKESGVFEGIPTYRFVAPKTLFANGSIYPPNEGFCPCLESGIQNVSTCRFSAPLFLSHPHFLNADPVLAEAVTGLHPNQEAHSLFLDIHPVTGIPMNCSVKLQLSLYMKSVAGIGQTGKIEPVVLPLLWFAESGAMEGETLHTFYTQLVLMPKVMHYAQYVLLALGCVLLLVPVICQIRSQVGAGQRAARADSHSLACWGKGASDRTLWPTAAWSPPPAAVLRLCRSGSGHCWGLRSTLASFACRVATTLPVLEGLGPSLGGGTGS
# PROCEDURE TEXT: cell-based or functional assay
Non-standard residues stand in square brackets, D forms with d. No end group written: not given here. Aib = CC(C)(N)C(=O)O
Response body: numeric value in %, unit text excluded.

Which Increase Over Un-induced (DiI uptake, BHK(SR-BI) cells) value belongs to DVFQKL[Aib]ELFNQLLEKWKQV (also: formulated as DiI-labeled peptide amphiphile lipid micelle with POPC and egg sphingomyelin) [DiI-labeled PALM prepared with the peptide of SEQ ID NO: 25] ? 245

Can you look up the measured Increase Over Un-induced (DiI uptake, BHK(SR-BI) cells) of DV[Aib]QKLFELFNQLLEKWKQV (also: formulated as DiI-labeled peptide amphiphile lipid micelle with POPC and egg sphingomyelin) [DiI-labeled PALM prepared with the peptide of SEQ ID NO: 27] for me? 90

Data request, read-out Increase Over Un-induced (DiI uptake, BHK(SR-BI) cells), for DVFQ[Aib]LKELLNQLLEKFKQV (also: formulated as DiI-labeled peptide amphiphile lipid micelle with POPC and egg sphingomyelin) [DiI-labeled PALM prepared with the peptide of SEQ ID NO: 5] 73

// lookup Increase Over Un-induced (DiI uptake, BHK(SR-BI) cells) for DV[Aib]QKFLELFNQLLEKWKQV (also: formulated as DiI-labeled peptide amphiphile lipid micelle with POPC and egg sphingomyelin) [DiI-labeled PALM prepared with the peptide of SEQ ID NO: 32] 221
